Target: Poly [ADP-ribose] polymerase 2 (Homo sapiens, UniProt Q9UGN5)
Sequence (Q9UGN5 whole entry): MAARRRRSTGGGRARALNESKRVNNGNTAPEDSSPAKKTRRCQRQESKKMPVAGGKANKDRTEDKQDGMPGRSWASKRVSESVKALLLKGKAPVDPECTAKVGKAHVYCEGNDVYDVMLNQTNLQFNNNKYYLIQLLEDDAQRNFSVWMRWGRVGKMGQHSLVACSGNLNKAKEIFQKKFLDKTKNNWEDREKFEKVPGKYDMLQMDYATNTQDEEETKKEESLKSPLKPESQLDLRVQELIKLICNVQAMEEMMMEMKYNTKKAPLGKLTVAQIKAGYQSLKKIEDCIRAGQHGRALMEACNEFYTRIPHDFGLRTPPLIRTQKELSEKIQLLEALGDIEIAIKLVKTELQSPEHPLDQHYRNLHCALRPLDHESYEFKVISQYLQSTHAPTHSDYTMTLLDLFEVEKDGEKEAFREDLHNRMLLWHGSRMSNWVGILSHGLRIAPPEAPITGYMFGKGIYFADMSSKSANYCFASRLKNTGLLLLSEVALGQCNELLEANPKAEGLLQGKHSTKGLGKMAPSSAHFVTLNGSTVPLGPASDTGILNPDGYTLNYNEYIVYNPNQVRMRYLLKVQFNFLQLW
Assay: Inhibition of PARP2 (unknown origin) at 1 uM preincubated with compound for 10 mins followed by DNA and NAD+ addition and measured after 60 mins by chemiluminescence based envision reader analysis relative to control
Details: time 70.0 min
Provide the recorded inhibition for the entries that follow.
The reply should contain only the number, in %.

Test item CCc1cc2ncc(CN3CC=C(c4ccc(C)cc4F)CC3)cc2[nH]c1=O ; Poly [ADP-ribose] polymerase 2 (Homo sapiens, UniProt Q9UGN5); reported inhibition was 75.4

The reported Poly [ADP-ribose] polymerase 2 (Homo sapiens, UniProt Q9UGN5) inhibition of CNC(=O)c1ccc(N2CCN(Cc3ccc4nc(C)c(=O)[nH]c4c3F)CC2)c(F)n1 [AZD-9574] is 38.1

The compound CCc1cc2ncc(CN3CC=C(c4ccc(C(F)(F)F)nc4)CC3)cc2[nH]c1=O , when measured on Poly [ADP-ribose] polymerase 2 (Homo sapiens, UniProt Q9UGN5), yielded inhibition of 82.3

Param item: CCc1cc2ncc(CN3CCN(c4ccc(C(=O)NC)nc4F)CC3)cc2[nH]c1=O ; param system: Poly [ADP-ribose] polymerase 2 (Homo sapiens, UniProt Q9UGN5); output inhibition: 93.8

Form: item CCc1cc2ncc(CN3CC=C(c4ccc(C#N)cn4)CC3)cc2[nH]c1=O ; test system Poly [ADP-ribose] polymerase 2 (Homo sapiens, UniProt Q9UGN5); inhibition: 72.9

Result for CCc1cc2ncc(CN3CC=C(c4ncc(C(=O)NC)nc4C)CC3)cc2[nH]c1=O , tested on Poly [ADP-ribose] polymerase 2 (Homo sapiens, UniProt Q9UGN5), inhibition: 85.4

Entry CCc1cc2ncc(CN3CC=C(c4ccc(C#N)cc4F)CC3)cc2[nH]c1=O : inhibition on Poly [ADP-ribose] polymerase 2 (Homo sapiens, UniProt Q9UGN5) = 92.3

The measured inhibition that CCc1cc2ncc(CN3CC=C(c4cnc(F)c(F)c4)CC3)cc2[nH]c1=O showed for Poly [ADP-ribose] polymerase 2 (Homo sapiens, UniProt Q9UGN5) is 77.3

For the compound CCc1cc2ncc(CN3CC=C(c4cc(F)c(C#N)cn4)CC3)cc2[nH]c1=O , the measured inhibition on Poly [ADP-ribose] polymerase 2 (Homo sapiens, UniProt Q9UGN5) was 87.4

The value of inhibition recorded for CCc1cc2ncc(CN3CC=C(c4ccc(C#N)cc4)CC3)cc2[nH]c1=O when tested on Poly [ADP-ribose] polymerase 2 (Homo sapiens, UniProt Q9UGN5) reads 91.7

---

Test: Tmax in male Balb/c mouse at 1 mg/kg, po measured upto 96 hrs by LC-MS/MS analysis
Assay type: ADME, organism-based
Details: in vivo
For each record, write down the corresponding Tmax.
Report the figure in h without appending any unit label.

Tmax for CNC(=O)c1ccc(N2CCN(Cc3ccc4nc(C)c(=O)[nH]c4c3F)CC2)c(F)n1 is 0.33

Item: CCc1cc2ncc(CN3CC=C(c4ccc(C#N)cn4)CC3)cc2[nH]c1=O | Tmax: 8.33

---

Test: Drug concentration in blood of male Balb/c mouse at 10 mg/kg, po measured at 1 hr postdose
Format: ADME, organism-based
Conditions: read-out: Ct
Test Readout: concentration at 1 h

compound CNC(=O)c1ccc(N2CCN(Cc3ccc4nc(C)c(=O)[nH]c4c3F)CC2)c(F)n1 , concentration at 1 h observed: 3780 ng/mL

---

Experiment: Cmax in male Balb/c mouse at 1 mg/kg, iv measured upto 96 hrs by LC-MS/MS analysis
Type: ADME, organism-based
Conditions: in vivo
Give Cmax for every item shown.
Answer format reminder: number followed by unit.

# Cmax of CNC(=O)c1ccc(N2CCN(Cc3ccc4nc(C)c(=O)[nH]c4c3F)CC2)c(F)n1 = 941 ng/mL

The reported Cmax of the compound CCc1cc2ncc(CN3CC=C(c4ccc(C#N)cn4)CC3)cc2[nH]c1=O was 10700 ng/mL

---

Test: Tmax in rat at 2.5 mg/kg, po measured upto 96 hrs by LC-MS/MS analysis
Format: ADME, organism-based
Settings: in vivo
Test Readout: Tmax (h)
Please respond with the number in h and leave the unit unwritten.

Tmax for CCc1cc2ncc(CN3CC=C(c4ccc(C#N)cn4)CC3)cc2[nH]c1=O is 8

---

Please provide measured IC50 for the entries that follow.
Target: Poly [ADP-ribose] polymerase 2 (Homo sapiens)
Test: Inhibition of PARP2 (unknown origin) preincubated with compound for 10 mins followed by DNA and NAD+ addition and measured after 60 mins by chemiluminescence based envision reader analysis
Answer in nM, number only, no unit symbol.

Item: CCc1cc2ncc(CN3CC=C(c4cc(F)c(C#N)cn4)CC3)cc2[nH]c1=O | IC50: 130

IC50 measured on CCc1cc2ncc(CN3CCN(c4ccc(C(=O)NC)nc4F)CC3)cc2[nH]c1=O = 88

Noted for CNC(=O)c1ccc(N2CCN(Cc3cnc4cc(C)c(=O)[nH]c4c3)CC2)c(F)n1 : its IC50 reads 19

For record CCc1cc2ncc(CN3CC=C(c4ccc([N+](=O)[O-])cc4F)CC3)cc2[nH]c1=O the listed IC50 is 37

Quick note, IC50 for CCc1cc2ncc(CN3CC=C(c4ccc(C#N)cn4)CC3)cc2[nH]c1=O landed at 122

The value of IC50 measured for the molecule CCc1cc2ncc(CN3CC=C(c4ccc(F)cn4)CC3)cc2[nH]c1=O turned out to be 65

Reported IC50 for CCc1cc2ncc(CN3CC=C(c4ccc(C#N)cc4F)CC3)cc2[nH]c1=O was 62

---

Test: Apparent volume of distribution in rat at 2.5 mg/kg, iv measured upto 96 hrs by LC-MS/MS analysis
Format: ADME, organism-based
Conditions: in vivo, read-out: Vz
Test Readout: Vd (L/kg)
Number in L/kg, nothing else.

According to the records, this molecule CCc1cc2ncc(CN3CC=C(c4ccc(C#N)cn4)CC3)cc2[nH]c1=O displays Vd of 0.21

---

Test: Drug concentration in blood of male Balb/c mouse at 10 mg/kg, po measured at 6 hr postdose
Type: ADME, organism-based
Conditions: read-out: Ct
Test Readout: concentration at 6 h (ng/mL)
Numbers only; they are read as ng/mL.

Quick note, concentration at 6 h for CNC(=O)c1ccc(N2CCN(Cc3ccc4nc(C)c(=O)[nH]c4c3F)CC2)c(F)n1 landed at 186

---

Experiment: Half life in male Balb/c mouse at 1 mg/kg, po measured upto 96 hrs by LC-MS/MS analysis
Assay type: ADME, organism-based
Conditions: male, Balb/c, in vivo
For each entry below, report its half-life value.
Answer with a number only, understood to be in h.

Value of measured half-life for the entry CCc1cc2ncc(CN3CC=C(c4cc(F)c(C#N)cn4)CC3)cc2[nH]c1=O : 5.26

GET /value?item= CNC(=O)c1ccc(N2CCN(Cc3ccc4nc(C)c(=O)[nH]c4c3F)CC2)c(F)n1 &field=half-life returns 8.81

half-life for CCc1cc2ncc(CN3CCN(c4cc(F)c(C#N)cn4)CC3)cc2[nH]c1=O is 6.3

---

Experiment: Clearance in male Balb/c mouse at 1 mg/kg, iv measured upto 96 hrs by LC-MS/MS analysis
Type: ADME, organism-based
Conditions: male, Balb/c, in vivo
Test Readout: clearance (mL/min/kg)
A number alone suffices; assume mL/min/kg.

// CNC(=O)c1ccc(N2CCN(Cc3ccc4nc(C)c(=O)[nH]c4c3F)CC2)c(F)n1 : clearance value = 3.17

---

Experiment: Clearance in male Balb/c mouse at 1 mg/kg, po measured upto 96 hrs by LC-MS/MS analysis
Format: ADME, organism-based
Conditions: male, Balb/c, in vivo
Task for the reader: assign each of the following compounds its reported CL/F.
The reply should be a number in mL/min/kg, with the unit left off.

CCc1cc2ncc(CN3CCN(c4cc(F)c(C#N)cn4)CC3)cc2[nH]c1=O has a reported CL/F of 1

Please fill in: CL/F reported for CNC(=O)c1ccc(N2CCN(Cc3ccc4nc(C)c(=O)[nH]c4c3F)CC2)c(F)n1 = 4

response.value for CCc1cc2ncc(CN3CC=C(c4cc(F)c(C#N)cn4)CC3)cc2[nH]c1=O (field: CL/F) = 1

---

Target: UniProtKB P09874
Sequence (P09874 whole entry): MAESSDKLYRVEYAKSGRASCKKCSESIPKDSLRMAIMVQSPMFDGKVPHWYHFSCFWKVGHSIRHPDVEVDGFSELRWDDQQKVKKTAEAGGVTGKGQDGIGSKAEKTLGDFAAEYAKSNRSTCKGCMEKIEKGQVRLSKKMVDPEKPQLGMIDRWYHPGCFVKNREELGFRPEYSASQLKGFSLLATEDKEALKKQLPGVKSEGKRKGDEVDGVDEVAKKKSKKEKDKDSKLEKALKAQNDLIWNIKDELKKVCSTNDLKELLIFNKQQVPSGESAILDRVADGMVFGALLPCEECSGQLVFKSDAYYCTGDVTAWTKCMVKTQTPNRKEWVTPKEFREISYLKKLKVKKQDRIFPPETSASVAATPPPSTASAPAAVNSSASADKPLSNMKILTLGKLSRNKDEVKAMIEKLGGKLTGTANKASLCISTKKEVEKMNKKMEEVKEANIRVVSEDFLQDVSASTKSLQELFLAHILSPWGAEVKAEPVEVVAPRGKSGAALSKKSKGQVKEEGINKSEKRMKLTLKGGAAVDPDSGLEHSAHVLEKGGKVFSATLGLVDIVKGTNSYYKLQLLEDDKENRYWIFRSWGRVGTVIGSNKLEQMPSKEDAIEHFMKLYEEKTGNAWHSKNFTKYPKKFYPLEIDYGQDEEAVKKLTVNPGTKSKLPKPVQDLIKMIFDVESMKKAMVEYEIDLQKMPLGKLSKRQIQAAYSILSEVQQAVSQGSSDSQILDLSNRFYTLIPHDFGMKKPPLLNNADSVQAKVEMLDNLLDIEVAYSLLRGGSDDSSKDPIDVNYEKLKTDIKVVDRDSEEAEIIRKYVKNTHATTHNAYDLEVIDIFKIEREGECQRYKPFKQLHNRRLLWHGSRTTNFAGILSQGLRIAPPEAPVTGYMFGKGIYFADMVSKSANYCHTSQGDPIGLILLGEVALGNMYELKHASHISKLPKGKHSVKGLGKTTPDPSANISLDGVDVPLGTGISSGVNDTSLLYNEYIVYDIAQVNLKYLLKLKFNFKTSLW
Test: Inhibition of PARP1 in PARP2 knockout human A549 cells preincubated with compound for 1 hr followed by H2O2 addition and measured after 5 mins by selective targeting PARylation inhibition assay
Format: cell-based
Test Readout: IC50 (nM)
Please give a number only; it is taken to be in nM.

IC50 reading for CCc1cc2ncc(CN3CC=C(c4ccc(C#N)cn4)CC3)cc2[nH]c1=O : 0.9

---

Experiment: Cmax in male Balb/c mouse at 1 mg/kg, po measured upto 96 hrs by LC-MS/MS analysis
Assay type: ADME, organism-based
Settings: in vivo
I'd appreciate it if you could supply Cmax values for the items below.
# unit: ng/mL | format: bare number

So, CCc1cc2ncc(CN3CC=C(c4ccc(C#N)cn4)CC3)cc2[nH]c1=O ? Its Cmax was 6630

response.value for CNC(=O)c1ccc(N2CCN(Cc3ccc4nc(C)c(=O)[nH]c4c3F)CC2)c(F)n1 [AZD-9574] (field: Cmax) = 594

Cmax for CCc1cc2ncc(CN3CCN(c4cc(F)c(C#N)cn4)CC3)cc2[nH]c1=O is 2250

Value of measured Cmax for the entry CCc1cc2ncc(CN3CC=C(c4cc(F)c(C#N)cn4)CC3)cc2[nH]c1=O : 3020
